- System: P388
- experimentSummary: Antitumor activity against mouse P388 cells allografted in mouse BDF1 mouse assessed as increase in survival time of mouse at 150 ug/kg, ip for 4 days relative to untreated control
- setupConditions: 96 h
Recorded measurements of Percent increase in survival time vs untreated control at 0.15 mg/kg, one per entry
measuredQuantity: Percent increase in survival time vs untreated control at 0.15 mg/kg

compoundStructureString: Cc1ccc(C(=O)N[C@@H]2C(=O)N[C@H](C(C)C)C(=O)N3CCC[C@H]3C(=O)N(C)CC(=O)N(C)[C@@H](C(C)C)C(=O)O[C@@H]2C)c2c1Oc1c(c(C(=O)N[C@@H]3C(=O)N[C@H](C(C)C)C(=O)N4CCC[C@H]4C(=O)N(C)CC(=O)N(C)[C@@H](C(C)C)C(=O)O[C@@H]3C)c3ncc(=O)oc3c1C)N2
targetOrSystem: P388
endpointResult: 169%

compoundStructureString: Cc1ccc(C(=O)N[C@@H]2C(=O)N[C@H](C(C)C)C(=O)N3CCC[C@H]3C(=O)N(C)CC(=O)N(C)[C@@H](C(C)C)C(=O)O[C@@H]2C)c2c1Oc1c(c(C(=O)N[C@@H]3C(=O)N[C@H](C(C)C)C(=O)N4CCC[C@H]4C(=O)N(C)CC(=O)N(C)[C@@H](C(C)C)C(=O)O[C@@H]3C)c3nc(C)c(=O)oc3c1C)N2
targetOrSystem: P388
endpointResult: 155%

compoundStructureString: Cc1ccc(C(=O)N[C@@H]2C(=O)N[C@H](C(C)C)C(=O)N3CCC[C@H]3C(=O)N(C)CC(=O)N(C)[C@@H](C(C)C)C(=O)O[C@@H]2C)c2c1Oc1c(c(C(=O)N[C@@H]3C(=O)N[C@H](C(C)C)C(=O)N4CCC[C@H]4C(=O)N(C)CC(=O)N(C)[C@@H](C(C)C)C(=O)O[C@@H]3C)c3nc(CC(=O)O)c(=O)oc3c1C)N2
targetOrSystem: P388
endpointResult: 140%

compoundStructureString: CCc1nc2c(C(=O)N[C@@H]3C(=O)N[C@H](C(C)C)C(=O)N4CCC[C@H]4C(=O)N(C)CC(=O)N(C)[C@@H](C(C)C)C(=O)O[C@@H]3C)c3c(c(C)c2oc1=O)Oc1c(C)ccc(C(=O)N[C@@H]2C(=O)N[C@H](C(C)C)C(=O)N4CCC[C@H]4C(=O)N(C)CC(=O)N(C)[C@@H](C(C)C)C(=O)O[C@@H]2C)c1N3
targetOrSystem: P388
endpointResult: 204%

Values compiled from ChEMBL document CHEMBL3228012.
